Data origin: ChEMBL document CHEMBL1153939

Target: UniProtKB O70528
Sequence (O70528 whole entry): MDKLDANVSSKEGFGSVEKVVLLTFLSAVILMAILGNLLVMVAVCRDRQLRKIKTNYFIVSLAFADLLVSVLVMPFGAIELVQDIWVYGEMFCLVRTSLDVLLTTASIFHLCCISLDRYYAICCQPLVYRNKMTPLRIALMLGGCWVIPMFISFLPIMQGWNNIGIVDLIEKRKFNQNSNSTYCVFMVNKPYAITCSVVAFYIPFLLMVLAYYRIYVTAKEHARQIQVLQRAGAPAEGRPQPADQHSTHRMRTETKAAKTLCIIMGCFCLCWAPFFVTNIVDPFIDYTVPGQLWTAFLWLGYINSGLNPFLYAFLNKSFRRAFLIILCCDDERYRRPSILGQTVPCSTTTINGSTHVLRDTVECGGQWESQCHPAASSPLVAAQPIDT
Assay: Displacement of [3H]GR-113808 from 5HT4 receptor in guinea pig striatum membrane at 10 nM
Assay type: cell membranes
property_label: inhibition (%)

{"columns": ["compound", "target_or_test_system", "recorded_measurement"],
 "data": [
  ["C=CCN1CCC(COc2nc3scc(C)c3n3cccc23)CC1", "UniProtKB O70528", 26],
  ["NCCOc1nc2ccsc2n2cccc12", "UniProtKB O70528", 0],
  ["CN(CCOc1nc2ccsc2n2cccc12)Cc1ccccc1", "UniProtKB O70528", 2],
  ["c1ccc(CN2CCN(CCOc3nc4ccsc4n4cccc34)CC2)cc1", "UniProtKB O70528", 0],
  ["CCCCCN1CCC(COc2nc3ccsc3n3cccc23)CC1", "UniProtKB O70528", 55],
  ["Cc1csc2nc(OCCCN3CCCCC3)c3cccn3c12", "UniProtKB O70528", 26],
  ["c1ccc(CN2CCC(COc3nc4ccsc4n4cccc34)CC2)cc1", "UniProtKB O70528", 0],
  ["CCCN1CCC(COc2nc3ccsc3n3cccc23)CC1", "UniProtKB O70528", 97],
  ["CCCN1CCCCC1CCOc1nc2ccsc2n2cccc12 (stereo unspecified)", "UniProtKB O70528", 0],
  ["Cc1csc2nc(OCC3CCN(C)CC3)c3cccn3c12", "UniProtKB O70528", 13],
  ["C=CCN1CCC(COc2nc3sccc3n3cccc23)CC1", "UniProtKB O70528", 49],
  ["CCCN1CCC(COc2nc3scc(C)c3n3cccc23)CC1", "UniProtKB O70528", 78],
  ["CCCCN1CCC(COc2nc3sccc3n3cccc23)CC1", "UniProtKB O70528", 56],
  ["c1cc2c(OCC3CCNCC3)nc3ccsc3n2c1", "UniProtKB O70528", 8],
  ["CCCN1CCCC(COc2nc3ccsc3n3cccc23)C1 (stereo unspecified)", "UniProtKB O70528", 0],
  ["c1cc2c(OCCC3CCCCN3)nc3ccsc3n2c1 (stereo unspecified)", "UniProtKB O70528", 5],
  ["c1cc2c(OCCCN3CCCC3)nc3ccsc3n2c1", "UniProtKB O70528", 15],
  ["c1cc2c(OCCN3CCCCC3)nc3ccsc3n2c1", "UniProtKB O70528", 5],
  ["CCCCCN1CCC(COc2nc3scc(C)c3n3cccc23)CC1", "UniProtKB O70528", 20],
  ["CCC(C)N1CCC(COc2nc3scc(C)c3n3cccc23)CC1 (stereo unspecified)", "UniProtKB O70528", 18],
  ["c1cc2c(OCCN3CCOCC3)nc3ccsc3n2c1", "UniProtKB O70528", 12],
  ["CCCCN1CCC(Oc2nc3ccsc3n3cccc23)CC1", "UniProtKB O70528", 1],
  ["c1cc2c(OCCCCN3CCCCC3)nc3ccsc3n2c1", "UniProtKB O70528", 16],
  ["CCCN1CCC(Oc2nc3ccsc3n3cccc23)CC1", "UniProtKB O70528", 10],
  ["C=CCN1CCC(COc2nc3ccsc3n3cccc23)CC1", "UniProtKB O70528", 32],
  ["CCCCN1CCCC(COc2nc3ccsc3n3cccc23)C1 (stereo unspecified)", "UniProtKB O70528", 0]
]}
